- Tested on: Human immunodeficiency virus 1
- ASSAY_METHOD_TEXT: Antiviral activity against HIV1 harboring reverse transcriptase K103N mutant infected in human […] cells assessed as protection against virus-induced cytopathic effect measured on day 5 post infection by MTT assay
- Type: functional, cell-based
- ASSAY_CONTEXT: Human immunodeficiency virus 1, 120 h
Response field label takes condition met when EC50 is strictly below 200 nM and condition not met in all other cases.

Cc1cc(C)cc(S(=O)(=O)c2c(C(=O)N[C@@H](C)C(=O)N[C@H](C)c3ccncc3)[nH]c3ccc(Cl)cc23)c1; condition met
Cc1cc(C)cc(S(=O)(=O)c2c(C(=O)NC(C)C(=O)NC(C)c3ccncc3)[nH]c3ccc(Cl)cc23)c1 (racemic); condition met
Cc1cc(C)cc(S(=O)(=O)c2c(C(=O)N[C@H](C)C(=O)N[C@H](C)c3ccncc3)[nH]c3ccc(Cl)cc23)c1; condition not met
Cc1cc(C)cc(S(=O)(=O)c2c(C(=O)N[C@H](C)C(=O)NCc3ccco3)[nH]c3ccc(Cl)cc23)c1; condition not met
Cc1cc(C)cc(S(=O)(=O)c2c(C(=O)NCC(=O)NCCn3c(C)cnc3[N+](=O)[O-])[nH]c3ccc(Cl)cc23)c1; condition not met
Cc1cc(C)cc(S(=O)(=O)c2c(C(=O)NC(C)C(=O)NCCn3c(C)cnc3[N+](=O)[O-])[nH]c3ccc(Cl)cc23)c1 (racemic); condition met

Moving on to the next compound.
Challenge: Hello, is EC50 of the following compound strictly smaller than 200 nM? Cc1cc(C)cc(S(=O)(=O)c2c(C(=O)NC(C)c3ccccc3F)[nH]c3ccc(Cl)cc23)c1 (racemic)
Response given: condition met

###

Entries and their selectivity ratio
- ASSAY_METHOD_TEXT: Selectivity index, ratio of CC50 for human MT4 cells to EC50 for HIV1 NL4-3 infected in human MT4 cells
- Format: toxicity, cell-based
- ASSAY_CONTEXT: read-out: Ratio CC50/EC50

The examples below pair each entry with its known result.
Cc1cc(C)cc(S(=O)(=O)c2c(C(=O)Nc3ccnc(C#N)c3)[nH]c3ccc(Cl)cc23)c1; > 9770
Cc1cc(C)cc(S(=O)(=O)c2c(C(=O)NC(CF)c3ccccc3)[nH]c3ccc(Cl)cc23)c1 (racemic); > 70300
Cc1cc(C)cc(S(=O)(=O)c2c(C(=O)NCc3cccc(N)c3)[nH]c3ccc(Cl)cc23)c1; > 76300

Challenge: Name the reported selectivity ratio value associated with the molecule Cc1cc(C)cc(S(=O)(=O)c2c(C(=O)NCC(=O)NCCn3c(C)cnc3[N+](=O)[O-])[nH]c3ccc(Cl)cc23)c1
Response given: 144000

###

Entries and their pIC50
- TESTED_ON: Human immunodeficiency virus type 1 reverse transcriptase (Human immunodeficiency virus 1)
# log scale: pIC50 equals minus log10 of the concentration in mol/L

Cc1cc(C)cc(S(=O)(=O)c2c(C(=O)N[C@@H](C)C(=O)NCc3ccncn3)[nH]c3ccc(Cl)cc23)c1; 6.33
Cc1cc(C)cc(S(=O)(=O)c2c(C(=O)N[C@H](C)C(=O)NCc3ccco3)[nH]c3ccc(Cl)cc23)c1; 6.84
Cc1cc(C)cc(S(=O)(=O)c2c(C(=O)N[C@H](C)C(=O)N[C@@H](C)c3ccncc3)[nH]c3ccc(Cl)cc23)c1; 5.92
Cc1cc(C)cc(S(=O)(=O)c2c(C(=O)NCC(=O)NCc3ccco3)[nH]c3ccc(Cl)cc23)c1; 6.84
Cc1cc(C)cc(S(=O)(=O)c2c(C(=O)N[C@@H](C)C(=O)N[C@@H](C)c3ccncc3)[nH]c3ccc(Cl)cc23)c1; 6.37

Challenge: Notebook: pull reported pIC50 for Human immunodeficiency virus type 1 reverse transcriptase (Human immunodeficiency virus 1), entry Cc1cc(C)cc(S(=O)(=O)c2c(C(=O)N[C@@H](C)c3ccccc3F)[nH]c3ccc(Cl)cc23)c1
Response given: 6.76

Challenge: Notebook: pull reported pIC50 for Human immunodeficiency virus type 1 reverse transcriptase (Human immunodeficiency virus 1), entry Cc1cc(C)cc(S(=O)(=O)c2c(C(=O)Nc3ccnc(C#N)c3)[nH]c3ccc(Cl)cc23)c1
Response given: 7.64

Challenge: Notebook: pull reported pIC50 for Human immunodeficiency virus type 1 reverse transcriptase (Human immunodeficiency virus 1), entry Cc1cc(C)cc(S(=O)(=O)c2c(C(=O)N[C@H](C)c3ccccc3F)[nH]c3ccc(Cl)cc23)c1
Response given: 7.06

Challenge: Notebook: pull reported pIC50 for Human immunodeficiency virus type 1 reverse transcriptase (Human immunodeficiency virus 1), entry Cc1cc(C)cc(S(=O)(=O)c2c(C(=O)N[C@H](C)C(=O)NCc3ccncc3)[nH]c3ccc(Cl)cc23)c1
Response given: 4.89

Challenge: Notebook: pull reported pIC50 for Human immunodeficiency virus type 1 reverse transcriptase (Human immunodeficiency virus 1), entry Cc1cc(C)cc(S(=O)(=O)c2c(C(=O)NCc3ccc4nc(N)[nH]c4c3)[nH]c3ccc(Cl)cc23)c1
Response given: 6.56

Challenge: Notebook: pull reported pIC50 for Human immunodeficiency virus type 1 reverse transcriptase (Human immunodeficiency virus 1), entry Cc1cc(C)cc(S(=O)(=O)c2c(C(=O)NCc3cccc(N)c3)[nH]c3ccc(Cl)cc23)c1
Response given: 7.39

Challenge: Notebook: pull reported pIC50 for Human immunodeficiency virus type 1 reverse transcriptase (Human immunodeficiency virus 1), entry Cc1cc(C)cc(S(=O)(=O)c2c(C(=O)NCC(=O)NCc3ccncn3)[nH]c3ccc(Cl)cc23)c1
Response given: 6.69

Challenge: Notebook: pull reported pIC50 for Human immunodeficiency virus type 1 reverse transcriptase (Human immunodeficiency virus 1), entry Cc1cc(C)cc(S(=O)(=O)c2c(C(=O)N[C@@H](C)C(=O)NCc3ccco3)[nH]c3ccc(Cl)cc23)c1
Response given: 6.95

Challenge: Notebook: pull reported pIC50 for Human immunodeficiency virus type 1 reverse transcriptase (Human immunodeficiency virus 1), entry Cc1cc(C)cc(S(=O)(=O)c2c(C(=O)N[C@@H](C)C(=O)N[C@H](C)c3ccncc3)[nH]c3ccc(Cl)cc23)c1
Response given: 6.21

Challenge: Notebook: pull reported pIC50 for Human immunodeficiency virus type 1 reverse transcriptase (Human immunodeficiency virus 1), entry Cc1cc(C)cc(S(=O)(=O)c2c(C(=O)N[C@H](C)C(=O)N[C@H](C)c3ccncc3)[nH]c3ccc(Cl)cc23)c1
Response given: 6.39

Challenge: Notebook: pull reported pIC50 for Human immunodeficiency virus type 1 reverse transcriptase (Human immunodeficiency virus 1), entry Cc1cc(C)cc(S(=O)(=O)c2c(C(=O)N[C@@H](C)C(=O)NCc3ccncc3)[nH]c3ccc(Cl)cc23)c1
Response given: 6.30

Challenge: Notebook: pull reported pIC50 for Human immunodeficiency virus type 1 reverse transcriptase (Human immunodeficiency virus 1), entry Cc1cc(C)cc(S(=O)(=O)c2c(C(=O)N[C@H](C)C(=O)NCc3ccncn3)[nH]c3ccc(Cl)cc23)c1
Response given: 5.74

###

- ASSAY_METHOD_TEXT: Cytotoxicity against human MT4 cells assessed as cell viability by MTT assay
- Assay type: cell-based
Entries and their CC50
Please state the figure in µM; there is no need to write the unit.

The examples below pair each entry with its known result.
Cc1cc(C)cc(S(=O)(=O)c2c(C(=O)NCC(=O)NC(C)c3ccccc3)[nH]c3ccc(Cl)cc23)c1 (racemic); 29.4
Cc1cc(C)cc(S(=O)(=O)c2c(C(=O)NC(C)C(=O)NCc3ccccc3F)[nH]c3ccc(Cl)cc23)c1 (racemic); 23.3

Challenge: Name the reported CC50 value associated with the molecule Cc1cc(C)cc(S(=O)(=O)c2c(C(=O)NC(C)C(=O)NCCn3c(C)cnc3[N+](=O)[O-])[nH]c3ccc(Cl)cc23)c1 (racemic)
Response given: 16

Challenge: Name the reported CC50 value associated with the molecule Cc1cc(C)cc(S(=O)(=O)c2c(C(=O)NC(C)C(=O)NCc3ccncc3)[nH]c3ccc(Cl)cc23)c1 (racemic)
Response given: 19.5

###

Entries and their CC50
- ASSAY_METHOD_TEXT: Cytotoxicity against human MT4 cells assessed as cell viability by MTT assay
- Type: cell-based

The examples below pair each entry with its known result.
Cc1cc(C)cc(S(=O)(=O)c2c(C(=O)NC(C)C(=O)NCCc3cccs3)[nH]c3ccc(Cl)cc23)c1 (racemic); 9.5 µM
Cc1cc(C)cc(S(=O)(=O)c2c(C(=O)NC(C)C(=O)NC(C)c3ccccc3)[nH]c3ccc(Cl)cc23)c1 (racemic); 21.7 µM
COc1cccc(F)c1CNC(=O)c1[nH]c2ccc(Cl)cc2c1S(=O)(=O)c1cc(C)cc(C)c1; > 49.9 µM
Cc1cc(C)cc(S(=O)(=O)c2c(C(=O)NCc3cccc(F)c3F)[nH]c3ccc(Cl)cc23)c1; > 51.1 µM

Challenge: Name the reported CC50 value associated with the molecule Cc1cc(C)cc(S(=O)(=O)c2c(C(=O)NCc3n[nH]c4ccccc34)[nH]c3ccc(Cl)cc23)c1
Response given: > 50.7 µM

Challenge: Name the reported CC50 value associated with the molecule Cc1cc(C)cc(S(=O)(=O)c2c(C(=O)NCC(=O)NCc3ccccc3F)[nH]c3ccc(Cl)cc23)c1
Response given: > 47.3 µM

Challenge: Name the reported CC50 value associated with the molecule Cc1cc(C)cc(S(=O)(=O)c2c(C(=O)NCC(=O)NC(C)c3ccccc3F)[nH]c3ccc(Cl)cc23)c1 (racemic)
Response given: > 23 µM

Challenge: Name the reported CC50 value associated with the molecule Cc1cc(C)cc(S(=O)(=O)c2c(C(=O)NCC(=O)NCc3ccco3)[nH]c3ccc(Cl)cc23)c1
Response given: > 50 µM
